Tested on: Plasmodium falciparum
EXPERIMENTAL_DETAILS: GSK_TCMDC: Inhibition of Plasmodium falciparum 3D7 in whole red blood cells, using parasite LDH activity as an index of growth. Test compounds present at 2uM
Type: functional
VALUE_TYPE: Inhibition (%)

INSERT INTO results (compound, reading_unit, recorded_value) VALUES
  ('COC(=O)c1cccc(C#CCCOCCCCCCNC[C@H](O)c2cc(Cl)c(N)c(Cl)c2)c1', '%', 97),
  ('Clc1cc(Cl)c2cc(CN[C@H]3CCC[C@@H]3CNc3nc4ccccc4[nH]3)[nH]c2c1', '%', 99),
  ('Cc1nc2cc(/C=C/C(=O)NC3CCC(CCN4CCc5ccc(C#N)cc5CC4)CC3)ccc2[nH]1.Cl (centres undefined)', '%', 88),
  ('CO/C(=C\C=C\c1cc2cc(Cl)c(Cl)cc2[nH]1)C(=O)NCCCN1CCN(C2CCCCC2)CC1', '%', 99),
  ('COc1ccc(-c2cnc3ccc(N4CCCC4)nn23)cc1OC.O=CO', '%', 98),
  ('CCOc1ccccc1CCNCC1CCN(CC2CCCCC2)CC1.O=C(O)C(F)(F)F', '%', 84),
  ('CC(C)CCNCc1ccc(OCc2ccccc2COc2ccc(CNCCC(C)C)cc2I)c(I)c1.Cl', '%', 100),
  ('O=C(Nc1ccc(OC2CCN(Cc3ccc(F)cc3)CC2)c(Cl)c1)c1ccc(F)cc1.O=C(O)C(F)(F)F', '%', 97),
  ('Cl.N=C(N)Nc1ccc(CCc2ccc(NC(=N)N)cc2)cc1', '%', 96);
